Experiment description: activity coefficient (dimensionless); of the first substance listed, at infinite dilution; xn = mol fraction of the nth substance listed
Setup conditions: 323.16 K; 101 kPa; Liquid; dilutor technique; x1 = 0
Label True when activity coefficient is at or above 7; otherwise label False.

Please review the entries below; each comes with its answer.
C=CCCC [1-pentene] + CCCCCCn1cc[n+](C)c1.O=S(=O)([O-])C(F)(F)F ... False
CCCCCCCC [octane] + CCCCCCn1cc[n+](C)c1.O=S(=O)([O-])C(F)(F)F ... True
C=CCCCC [hex-1-ene] + CCCCCCCCn1cc[n+](C)c1.O=S(=O)([O-])C(F)(F)F ... False

Next, consider the following molecule.
Problem: State whether the measured activity coefficient reaches 7, counting equality as reaching it, for CCCCCCC [heptane] + CCCCCCn1cc[n+](C)c1.O=S(=O)([O-])C(F)(F)F
Result: True

Attribution: the NIST ThermoML archive (doi:10.1016/j.fluid.2010.02.010)
